Measured Target: CKIδ wild type (Homo sapiens, UniProt P48730)
Test Readout: pIC50
# pIC50 is unitless: minus log10 of the molar concentration; print number only

Compound String	Test Readout	Data Value
Cn1cc(-c2ccnc3c2OCCNC3)c(-c2ccc(F)cc2)n1	pIC50	8.22

Alright, here's another compound for you.
Q. I'd like to know its pIC50. The compound in question is COC(=O)C1(N2Cc3nccc(-c4cn(C)nc4-c4ccc(F)cc4)c3C2=O)CC1
A. 7.32

###

Measured Target: human CK1δ (Cos 7 cells cotransfected with mouse Per3-GFP) (Homo sapiens, UniProt P48730)
Construct: His tag of the vector pcDNA4/hisA (only the vector name is printed)
Sequence (P48730 whole entry): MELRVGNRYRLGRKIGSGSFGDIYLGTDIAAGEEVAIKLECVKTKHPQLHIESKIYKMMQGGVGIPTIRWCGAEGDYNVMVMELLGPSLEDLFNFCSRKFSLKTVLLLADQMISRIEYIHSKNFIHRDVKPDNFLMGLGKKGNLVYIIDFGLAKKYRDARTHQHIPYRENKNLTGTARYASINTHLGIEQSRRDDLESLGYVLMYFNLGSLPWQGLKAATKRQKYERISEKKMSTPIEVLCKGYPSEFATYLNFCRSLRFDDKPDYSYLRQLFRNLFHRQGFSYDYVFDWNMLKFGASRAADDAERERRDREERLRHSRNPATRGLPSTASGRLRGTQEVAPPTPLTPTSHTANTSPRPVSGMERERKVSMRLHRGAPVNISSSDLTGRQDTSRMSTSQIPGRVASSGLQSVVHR
Assay Notes: CK1 WCA HCS nuclear translocation assay (CK1δ)
Assay Setup: inhibition of mPer3-GFP translocation to the nucleus, overnight exposure, read-out: CK1 δ WCA EC50
Test Readout: EC50 (nM)
Respond with the bare value in nM.

Compound String	Measured Target	Unit Text	EC50
Cn1cc(-c2ccnc3c2CN(C(=O)OCc2ccccc2)C3)c(-c2ccc(F)cc2)n1	human CK1δ (Cos 7 cells cotransfected with mouse Per3-GFP) (Homo sapiens, UniProt P48730)	nM	51.6
Cn1cc(-c2ccnc3c2C(=O)N(Cc2cccnc2)C3)c(-c2ccc(F)cc2)n1	human CK1δ (Cos 7 cells cotransfected with mouse Per3-GFP) (Homo sapiens, UniProt P48730)	nM	83.6
Cn1cc(-c2ccnc3c2C(=O)N([C@H]2[C@@H]4COC[C@@H]42)C3)c(-c2ccc(F)cc2)n1	human CK1δ (Cos 7 cells cotransfected with mouse Per3-GFP) (Homo sapiens, UniProt P48730)	nM	167
Cc1noc(CCN2Cc3nccc(-c4cn(C)nc4-c4ccc(F)cc4)c3C2=O)n1	human CK1δ (Cos 7 cells cotransfected with mouse Per3-GFP) (Homo sapiens, UniProt P48730)	nM	71.4
CCS(=O)(=O)N1Cc2nccc(-c3cn(C)nc3-c3ccc(F)cc3)c2C1	human CK1δ (Cos 7 cells cotransfected with mouse Per3-GFP) (Homo sapiens, UniProt P48730)	nM	103

Q. I'd like to know its EC50. The compound in question is Cn1cc(-c2ccnc3c2C(=O)N([C@H]2CCOC2=O)C3)c(-c2ccc(F)cc2)n1
A. 1430

Q. I'd like to know its EC50. The compound in question is Cc1c(CN2Cc3nccc(-c4cn(C)nc4-c4ccc(F)cc4)c3C2=O)cnn1C
A. 104
